Biological target: T1, LINGO-Fc (human, UniProt Q96FE5 40-538, limits assumed)
T1 construct: not shown: Fc part
T1 sequence: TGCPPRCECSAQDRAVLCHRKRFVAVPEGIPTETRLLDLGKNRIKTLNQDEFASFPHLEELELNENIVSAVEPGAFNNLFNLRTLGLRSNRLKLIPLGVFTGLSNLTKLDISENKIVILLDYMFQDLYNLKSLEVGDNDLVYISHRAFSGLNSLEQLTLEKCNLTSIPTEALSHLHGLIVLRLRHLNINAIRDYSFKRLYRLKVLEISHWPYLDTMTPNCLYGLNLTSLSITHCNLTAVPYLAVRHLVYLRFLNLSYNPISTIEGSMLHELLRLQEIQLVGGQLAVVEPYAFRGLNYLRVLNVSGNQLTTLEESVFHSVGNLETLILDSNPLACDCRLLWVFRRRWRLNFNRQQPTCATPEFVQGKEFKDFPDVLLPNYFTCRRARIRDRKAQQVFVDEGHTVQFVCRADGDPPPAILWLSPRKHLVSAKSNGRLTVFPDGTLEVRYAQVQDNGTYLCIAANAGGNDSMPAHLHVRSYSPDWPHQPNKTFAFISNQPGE
Assay: direct ELISA on LINGO-Fc; half-maximal concentration relative to Li33;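 further: direct binding ELISA on plates coated with LINGO-Fc, concentration giving half of saturating binding, expressed as a ratio to the same value for the comparator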
reported-property: ELISA Ratio (ratio)
# value in ratio; strip the unit string

I am curious: what ELISA Ratio value has been reported for Li33 variant I57G (SEQ ID NO:159) (antibody, V domains shown, unchanged chain from WT Li33) VH: EVQLLESGGGLVQPGGSLRLSCAASGFTFSIYPMFWVRQAPGKGLEWVSWIGPSGGGTKYADSVKGRFTISRDNSKNTLYLQMNSLRAEDTATYYCAREGHNDWYFDLWGRGTLVTVSS VL: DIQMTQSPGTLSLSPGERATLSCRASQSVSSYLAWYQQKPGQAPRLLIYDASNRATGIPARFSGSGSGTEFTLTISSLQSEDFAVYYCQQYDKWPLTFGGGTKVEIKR ?
2.3

Returns the measured ELISA Ratio for the input binder. Input: WT Li33 (Table 11) (antibody, V domains shown) VH: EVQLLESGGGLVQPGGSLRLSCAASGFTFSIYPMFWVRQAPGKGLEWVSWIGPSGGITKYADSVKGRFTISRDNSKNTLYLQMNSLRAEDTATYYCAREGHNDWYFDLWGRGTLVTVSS VL: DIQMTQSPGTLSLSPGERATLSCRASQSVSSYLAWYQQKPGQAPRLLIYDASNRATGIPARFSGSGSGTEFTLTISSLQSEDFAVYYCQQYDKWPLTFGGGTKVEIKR
1

Name the reported ELISA Ratio value associated with the binder Li33 variant I57M (SEQ ID NO:160) (antibody, V domains shown, unchanged chain from WT Li33) VH: EVQLLESGGGLVQPGGSLRLSCAASGFTFSIYPMFWVRQAPGKGLEWVSWIGPSGGMTKYADSVKGRFTISRDNSKNTLYLQMNSLRAEDTATYYCAREGHNDWYFDLWGRGTLVTVSS VL: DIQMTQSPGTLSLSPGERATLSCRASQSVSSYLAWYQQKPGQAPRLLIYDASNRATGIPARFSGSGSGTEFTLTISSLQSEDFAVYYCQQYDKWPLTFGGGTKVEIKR
3.8
